src = patent US7135466B2

- Tested System: PDGF-Ra (Homo sapiens)
- Construct: host or cells: G-292 human osteosarcoma cells
- Sequence (P16234 24-1089): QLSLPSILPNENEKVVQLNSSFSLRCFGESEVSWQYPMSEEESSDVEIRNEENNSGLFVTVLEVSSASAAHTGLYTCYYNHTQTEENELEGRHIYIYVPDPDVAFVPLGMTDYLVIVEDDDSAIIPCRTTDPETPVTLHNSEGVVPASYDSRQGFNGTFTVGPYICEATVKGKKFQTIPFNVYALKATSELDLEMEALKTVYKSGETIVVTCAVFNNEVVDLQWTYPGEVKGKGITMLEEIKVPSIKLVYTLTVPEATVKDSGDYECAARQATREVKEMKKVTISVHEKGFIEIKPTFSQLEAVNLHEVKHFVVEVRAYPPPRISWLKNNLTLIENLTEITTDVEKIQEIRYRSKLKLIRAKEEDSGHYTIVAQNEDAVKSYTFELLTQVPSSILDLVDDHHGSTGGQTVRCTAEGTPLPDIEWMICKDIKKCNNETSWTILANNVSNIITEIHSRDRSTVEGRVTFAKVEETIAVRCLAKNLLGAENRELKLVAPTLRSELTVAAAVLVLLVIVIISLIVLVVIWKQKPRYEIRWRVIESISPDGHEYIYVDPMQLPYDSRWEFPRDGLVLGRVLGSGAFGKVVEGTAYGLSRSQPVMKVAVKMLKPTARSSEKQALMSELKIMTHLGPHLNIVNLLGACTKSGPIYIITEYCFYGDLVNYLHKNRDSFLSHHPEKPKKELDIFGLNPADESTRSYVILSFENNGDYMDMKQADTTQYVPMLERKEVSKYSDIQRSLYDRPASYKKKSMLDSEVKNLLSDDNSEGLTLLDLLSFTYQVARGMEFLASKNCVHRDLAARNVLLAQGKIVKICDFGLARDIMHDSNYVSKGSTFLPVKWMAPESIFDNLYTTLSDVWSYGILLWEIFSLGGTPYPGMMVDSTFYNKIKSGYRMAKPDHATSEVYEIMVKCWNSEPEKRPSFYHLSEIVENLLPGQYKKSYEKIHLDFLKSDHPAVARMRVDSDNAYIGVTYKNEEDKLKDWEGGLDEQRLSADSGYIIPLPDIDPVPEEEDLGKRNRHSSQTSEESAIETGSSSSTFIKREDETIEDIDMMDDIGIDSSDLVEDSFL
- Experimental Protocol: Inhibitory activity against PDGF-Ra phosphorylation by PDGF-AA stimulation using G292
- Format: cell-based
- Assay Context: Pharmacological Test Example 1; > means inhibition at indicated concentration not more than 50%, < and << not less than 50%; read-out: PDGF (E) IC50
Recorded Metric: IC50

{"Compound": "COc1cc2nccc(Oc3ccc(NC(=O)OCc4ccc(C(F)(F)F)cc4)cc3)c2cc1OC [Example 21]", "Recorded Metric": "IC50", "Result": "< 10 nM"}

Looking up COc1cccc(C(C)OC(=O)Nc2ccc(Oc3ccnc4cc(OC)c(OC)cc34)cc2)c1 (centres unmarked) [Example 52] , I found its IC50 recorded as < 10 nM

Looking up COc1cc2ncnc(Oc3ccc(NC(=O)OCCCSc4ccc(C)cc4)cc3)c2cc1OC [Example 40] , I found its IC50 recorded as < 10 nM

Looking up COc1cc2nccc(Oc3ccc(NC(=O)OCC4CC4)c(C)c3C)c2cc1OC [Example 382] , I found its IC50 recorded as < 10 nM

Looking up COc1cc2ncnc(Oc3ccc(NC(=O)OCCC4CCCCC4)cc3)c2cc1OC [Example 356] , I found its IC50 recorded as < 10 nM

Looking up COc1cc2nccc(Oc3ccc(NC(=O)Oc4c(C)cccc4C)c(C)c3C)c2cc1OC [Example 271] , I found its IC50 recorded as 22 nM

Looking up CCCCc1ccc(OC(=O)Nc2ccc(Oc3ccnc4cc(OC)c(OC)cc34)c(C)c2C)cc1 [Example 273] , I found its IC50 recorded as 23 nM

Looking up CCCCc1ccc(OC(=O)Nc2ccc(Oc3ccnc4cc(OC)c(OC)cc34)cc2)cc1 [Example 257] , I found its IC50 recorded as 6 nM
